Recorded IC50 for the following compounds
Target: FLuc-C-HiBiT (Photinus pyralis, UniProt P08659)
Construct: firefly luciferase with C-terminal HiBiT tag, E. coli expressed
Assay: biochemical
Details: enzyme activity, 10 uM ATP; read-out: IC50 or SDR50 (mM) / FLuc E
VALUE_TYPE: IC50 (mM)

COc1ccc(-n2ncc3c(NC4CCCC4)ncnc32)cc1 : 0.00176
COc1ccc(N2CCN(C(=O)c3noc(-c4ccc(C)cc4)n3)CC2)cc1 : 0.00989
O=C(O)c1ccccc1-c1noc(-c2ccccc2F)n1 : 0.0157
COc1ccc(NC(=O)Nc2cccc(-c3ccc(N4CCCCC4)nn3)c2)c(OC)c1 : 0.000989
Cn1nc(-c2ccc3c(c2)OCCO3)nc1N1CCCCC1 : 0.00989
CN(C)C(=O)c1cccc2c1CCN2C(=O)Nc1ccc(F)cc1 : 0.00394
Cc1ccc(CSc2nc3cccnc3n2Cc2ccc(C(=O)NC3CC3)cc2)cc1 : 0.000394
COc1cccc(Nc2ncc(-c3cccnc3)c3c2OCC3)c1 : 0.018
Clc1ccc(OCc2nc3ccccc3n2Cc2ccccc2)c(Cl)c1 : 0.007
CC(C)CCNC(=O)c1ccc2c(c1)nc1n2CCCCC1 : 0.00989
Fc1ccc(Nc2nc(-c3ccccc3F)no2)cc1 : 0.00989
CC(C)Oc1ccc(C(=O)Nc2nnc3n2CCS3)cc1 : 0.0176
CC1(NC(=O)C2CC2)CN(Cc2nc(-c3ccccc3OCc3ccccc3)cs2)C1 : 0.0161
Cc1ccc(-n2ncc3c(N4CCN(C)CC4)ncnc32)cc1 : 0.00556
O=C1OCCN1CCNc1ccc(-c2nc(-c3ccccc3F)no2)cn1 : 0.0124
Cc1csc(NC(=O)c2nc3c(o2)CCN(Cc2ccccc2F)CC3)n1 : 0.0128

---

Target: P. pyralis FLuc (Photinus pyralis, UniProt P08659)
Sequence (P08659 whole entry): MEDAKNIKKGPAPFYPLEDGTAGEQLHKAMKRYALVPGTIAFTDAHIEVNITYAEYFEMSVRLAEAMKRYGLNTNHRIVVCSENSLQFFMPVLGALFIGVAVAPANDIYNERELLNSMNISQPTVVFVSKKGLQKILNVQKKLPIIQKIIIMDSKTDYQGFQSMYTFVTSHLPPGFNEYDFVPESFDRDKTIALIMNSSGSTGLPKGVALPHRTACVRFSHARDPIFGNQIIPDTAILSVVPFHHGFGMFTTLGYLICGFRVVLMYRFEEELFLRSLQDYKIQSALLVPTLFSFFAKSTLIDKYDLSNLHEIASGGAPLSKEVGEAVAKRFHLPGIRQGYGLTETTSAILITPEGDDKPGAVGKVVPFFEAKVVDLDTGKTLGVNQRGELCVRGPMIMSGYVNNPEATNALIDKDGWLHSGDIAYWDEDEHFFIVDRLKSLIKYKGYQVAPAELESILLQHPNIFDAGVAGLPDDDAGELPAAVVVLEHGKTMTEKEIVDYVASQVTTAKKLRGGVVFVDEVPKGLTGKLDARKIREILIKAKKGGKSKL
Assay: FLuc enzymatic luminescence assay, P. pyralis FLuc
Type: biochemical
Conditions: FLuc enzymatic assay; Clade S follow-up
VALUE_TYPE: Efficacy (%) FLuc E

COc1ccccc1CNC(=O)C1CCN(C(=O)c2ncn3c2COC(c2ccccc2)C3)CC1 (centres unmarked) : -78.77
COc1ccc(C2Cn3cnc(C(=O)N4CCC(C(=O)NCCc5ccccc5)CC4)c3CO2)cc1 (centres unmarked) : 0.00
O=C(NCc1cccc(F)c1)C1CCN(C(=O)c2ncn3c2COC(c2ccc(F)cc2)C3)CC1 (centres unmarked) : -43.87
CCOc1ccccc1CNC(=O)C1CCN(C(=O)c2ncn3c2COC(c2ccccc2)C3)CC1 (centres unmarked) : -109.28
O=C(Nc1ccccc1)C1CCN(C(=O)c2ncn3c2COC(c2ccccc2)C3)CC1 (centres unmarked) : -101.51
O=C(Nc1ccc(F)c(F)c1)C1CCN(C(=O)c2ncn3c2COC(c2ccccc2)C3)CC1 (centres unmarked) : -98.00
Cc1ccc(C2Cn3cnc(C(=O)N4CCC(C(=O)NCc5ccccc5Cl)CC4)c3CO2)cc1 (centres unmarked) : -50.12
Cc1ccc(C2Cn3cnc(C(=O)N4CCC(C(=O)NC(C)c5ccccc5)CC4)c3CO2)cc1 (centres unmarked) : -61.76

---

Molecular target: PKA-N-HiBiT (Homo sapiens)
Assay: SDR assay, PKA-N-HiBiT
Conditions: read-out: PKA SDR Ave SDR50; PKA-N-HiBiT qHTS, SDR assay; average
pEC50: −log10 of the molar value. Where a name gives a salt, the structure may show the parent alone.
pEC50 values, listed per item
VALUE_TYPE: pEC50

Cc1cc(O)c2c(c1)C(=O)c1cc(O)cc(O)c1C2=O [Emodin] : 4.82
CC[C@@](C)(Nc1ccnc(-c2c[nH]c3ncccc23)n1)C(=O)NCC(F)(F)F [Decernotinib] : 4.73
Cc1[nH]c2ccccc2c1C1=C(NCCc2ccc(F)cc2)C(=O)N(C)C1=O [IM-12] : 4.38
CO[C@H]1/C=C/O[C@@]2(C)Oc3c(C)c(O)c4c(O)c(c(/C=N\N5CCN(C6CCCC6)CC5)c(O)c4c3C2=O)NC(=O)C(C)=C/C=C/[C@H](C)[C@H](O)[C@@H](C)[C@@H](O)[C@@H](C)[C@H](OC(C)=O)[C@@H]1C [Rifapentin] : 4.77
O=C(Nc1c[nH]nc1-c1nc2ccc(CN3CCOCC3)cc2[nH]1)NC1CC1 [AT9283] : 7.34
O=C(NOCC(O)CO)c1cc(Br)c(F)c(F)c1Nc1ccc(I)cc1F (stereo not drawn) [PD-318088] : 4.21
Cc1n[nH]c2ncc(C(=O)N3CCC[C@H]3c3ccc(Cl)cc3)cc12 [MSC2530818] : 4.84
COc1cc(N2CCOCC2)ccc1Nc1ncc(Cl)c(Nc2ccccc2NS(C)(=O)=O)n1 [CZC 54252 HCl] : 5.80
C/C(O)=C(\C#N)C(=O)Nc1cc(Br)ccc1Br [LFM-A13] : 5.38
COc1cc(N2CCC(N3CCN(C)CC3)CC2)ccc1Nc1ncc(Cl)c(Nc2ccccc2P(C)(C)=O)n1 [Brigatinib] : 4.98
O=C(O)[C@]1(Cc2cccc(Nc3nccs3)n2)CC[C@@H](Oc2cccc(Cl)c2F)CC1 [MK-5108 (VX-689)] : 4.55
Cc1n[nH]c2ccc(-c3cncc(OC[C@@H](N)Cc4c[nH]c5ccccc45)c3)cc12 [A-443654] : 6.73
CCOc1ccn(-c2ccc(F)cc2)c(=O)c1C(=O)Nc1ccc(Oc2ccnc(N)c2Cl)c(F)c1 [BMS-777607] : 4.12
N#Cc1cccc(-c2c[nH]c3ncnc(N4CCOCC4)c23)c1 [PF-06447475] : 4.68
c1cc(-c2cc(C3CCNCC3)[nH]n2)ccn1 [ETP 45835 2HCl] : 4.71

---

Biological target: ABL1-N-HiBiT kinase domain (Homo sapiens, UniProt P00519)
Sequence (P00519 233-500): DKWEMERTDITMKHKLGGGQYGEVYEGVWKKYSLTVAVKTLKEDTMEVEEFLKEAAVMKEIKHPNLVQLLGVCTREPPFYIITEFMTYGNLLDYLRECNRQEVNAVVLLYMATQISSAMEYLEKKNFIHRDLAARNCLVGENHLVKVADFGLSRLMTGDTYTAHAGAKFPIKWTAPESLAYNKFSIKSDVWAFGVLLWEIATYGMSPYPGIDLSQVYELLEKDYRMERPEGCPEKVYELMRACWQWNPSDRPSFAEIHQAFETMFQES
Assay: SDR assay, ABL1-N-HiBiT
Settings: ABL1, SDR; heatmap data, 128 kinase inhibitors
We'd kindly ask you to apply these ABL1 SDR pSDR50 classes: lo: < 5; mid: ≥ 5 and < 6; hi: ≥ 6

Cc1nc2ccc(-n3ncc(C(=O)c4cc5ccccc5[nH]4)c3N)cc2[nH]1 [CH-5183284] : mid
CN1CCN(Cc2ccc(-c3cnc4[nH]cc(-c5ccc6[nH]ccc6c5)c4c3)cc2)CC1 [URMC-099] : hi
COc1cc2ncnc(-n3nc(-c4ccccn4)nc3N)c2cc1OC [CP-466722] : hi
COc1cc2ncnc(Oc3cccc(NC(=O)Nc4cc(C(C)(C)C(F)(F)F)on4)c3)c2cc1OC [CEP-32496] : hi
CCOc1ccn(-c2ccc(F)cc2)c(=O)c1C(=O)Nc1ccc(Oc2ccnc(N)c2Cl)c(F)c1 [BMS-777607] : mid
N#Cc1cccc(-c2c[nH]c3ncnc(N4CCOCC4)c23)c1 [PF-06447475] : lo
COc1ccccc1-c1c[nH]c2ncc(-c3cncc(C(=O)N(C)C)c3)cc12 [PPY A] : hi
Cc1n[nH]c2ccc(-c3cncc(OC[C@@H](N)Cc4c[nH]c5ccccc45)c3)cc12 [A-443654] : mid
O=C(c1cccc(Cl)c1F)N1CCN(Cc2cccc(Nc3nccs3)n2)CC1 [MK-8745] : mid
C[C@@H](NC(=O)c1ncnc(N)c1Cl)c1ncc(C(=O)Nc2cc(C(F)(F)F)c(Cl)cn2)s1 [MLN 2480] : hi
CC1(C)OCCn2c1nc1c(N3CCOCC3)nc(-c3cnc(N)nc3)nc12 [GDC-0084] : mid
CC(C)CCN1c2nc(Nc3cc(F)c(O)c(F)c3)ncc2N(C)C(=O)C1C (centres unmarked) [BI-D1870] : mid
C=CC(=O)N1CCC(Oc2cc3c(Nc4ccc(Cl)c(Cl)c4F)ncnc3cc2OC)CC1 [Poziotinib] : lo
Nc1nc(NCCNc2ncc(-n3ccnc3)c(-c3ccc(Cl)cc3Cl)n2)ccc1[N+](=O)[O-] [CT-98014] : lo
CN1CCN(CCCNc2ncc(Cl)c(-c3cc4c(C(=O)NC5CC5)cccc4s3)n2)CC1 [LY-2409881] : mid
CN1CCN(c2ccc(Nc3ncc4cc(C#N)c(=O)n(C5CCCC5)c4n3)cc2)CC1 [ON-123300] : hi
CC[C@@](C)(Nc1ccnc(-c2c[nH]c3ncccc23)n1)C(=O)NCC(F)(F)F [Decernotinib] : mid
Cn1cc(-c2cc3c(N4CCN(c5ncc([C@@](C)(N)c6ccc(F)cc6)cn5)CC4)ncnn3c2)cn1 [Avapritinib] : mid

---

Biological target: FLuc-C-NLuc (firefly luciferase) (Photinus pyralis, UniProt P08659, form not given/L550V)
Sequence (P08659 2-550 L550V, form open): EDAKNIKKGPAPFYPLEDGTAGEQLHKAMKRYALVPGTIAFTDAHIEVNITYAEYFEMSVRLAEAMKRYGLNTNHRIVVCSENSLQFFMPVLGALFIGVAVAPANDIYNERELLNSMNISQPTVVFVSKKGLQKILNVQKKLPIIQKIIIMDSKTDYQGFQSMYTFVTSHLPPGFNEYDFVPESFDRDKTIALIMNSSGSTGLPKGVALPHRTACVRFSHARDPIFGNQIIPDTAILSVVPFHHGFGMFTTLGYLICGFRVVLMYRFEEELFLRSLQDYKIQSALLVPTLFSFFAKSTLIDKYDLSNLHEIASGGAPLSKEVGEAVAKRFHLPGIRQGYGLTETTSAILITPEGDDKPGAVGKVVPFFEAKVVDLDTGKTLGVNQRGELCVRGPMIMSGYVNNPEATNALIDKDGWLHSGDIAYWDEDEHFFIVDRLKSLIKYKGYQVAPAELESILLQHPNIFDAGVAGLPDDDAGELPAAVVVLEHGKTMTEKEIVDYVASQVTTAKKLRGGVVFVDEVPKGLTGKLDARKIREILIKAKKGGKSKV
Assay: SDR assay, FLuc-C-NLuc
Conditions: 1 nM FLuc-C-NLuc; normalized activity; Log [Compound], M -7.82
VALUE_TYPE: SDR + 10 mM ATP

Cc1ccc(-n2ncc3c(N4CCCCCC4)ncnc32)cc1 : 3.6
O=C(O)c1cccc2c1CCN2C(=O)Nc1ccc(F)cc1 : 70.2
CNC(=O)c1cccc2c1CCN2C(=O)Nc1ccc(C)cc1 : 3.2
CC1CCCN(c2ncnc3c2cnn3-c2ccccc2)C1 (centres unmarked) : 3.3
Fc1ccc(-c2cn3cc(Cc4ccccc4)sc3n2)cc1 : 6.8
O=C(O)CCSc1nnc(-c2ccc(Cl)cc2Cl)o1 : 18.0
CC(CNC(=O)C1CCN(C(=O)c2ncn3c2COC(c2ccccc2)C3)CC1)c1ccccc1 (centres unmarked) : -0.7
COc1ccc(-c2nc(-c3ccc(C(=O)O)cc3)no2)cc1 : 45.7
